Test system: AR mRNA
Assay: Dose-dependent antisense inhibition of human AR in HuVEC cells (electroporation, qRT-PCR RTS3559, IC50)
Format: cell-based
Details: 125.0 nM; HuVEC, ~16 h; Table 8
Oligonucleotides are written 5' to 3', each unit as a sugar letter and its base; * is a phosphorothioate linkage, no mark a phosphodiester; rarer units and linkages stand in square brackets, end groups in braces. Plain capitals give the bases only. k = constrained ethyl (cEt); [5mC] = 5-methylcytosine; d = 2'-deoxy (DNA)
Label Condition met when percent inhibition of AR is at or above 60%; anything below gets Condition not met.

Exercise: Dear colleague, could you confirm whether 549457 (kT*kT*kG*dA*dT*dT*dT*dA*dA*dT*dG*dG*dT*kT*kG*k[5mC]) [compound 549457] has percent inhibition of AR at or above 60%?
Solution: Condition met

---

Tested on: AR mRNA
Assay: Dose-dependent antisense inhibition of human AR in HuVEC cells (electroporation, qRT-PCR RTS3559, IC50)
Assay type: cell-based
Details: 55.6 nM; HuVEC, ~16 h; Table 4
Oligonucleotides are written 5' to 3', each unit as a sugar letter and its base; * is a phosphorothioate linkage, no mark a phosphodiester; rarer units and linkages stand in square brackets, end groups in braces. Plain capitals give the bases only. k = constrained ethyl (cEt); [5mC] = 5-methylcytosine; d = 2'-deoxy (DNA)
parameter: percent inhibition of AR (%)
Answers are plain numbers, in %.

// each listed substance needs a value for percent inhibition of AR
1. 549387 (kA*kG*k[5mC]*dT*dT*d[5mC]*dA*dT*d[5mC]*dT*d[5mC]*d[5mC]*dA*k[5mC]*kA*kG; antisense) [compound 549387]
2. 549432 (kG*kA*kG*dG*dA*dT*d[5mC]*dA*dT*d[5mC]*dA*d[5mC]*dA*kG*kA*kT) [compound 549432]
3. 549347 (k[5mC]*kT*kT*d[5mC]*dG*d[5mC]*dG*d[5mC]*dA*d[5mC]*dG*d[5mC]*dT*k[5mC]*kT*kG; antisense) [compound 549347]
4. 549458 (kG*kT*kT*dG*dA*dT*dT*dT*dA*dA*dT*dG*dG*kT*kT*kG) [compound 549458]
5. 549366 (k[5mC]*kT*kT*dG*d[5mC]*d[5mC]*dT*dG*d[5mC]*dG*d[5mC]*dT*dG*kT*k[5mC]*kG; antisense) [compound 549366]
6. 549334 (k[5mC]*kA*k[5mC]*d[5mC]*dT*dG*d[5mC]*dG*dG*dG*dA*dA*dG*k[5mC]*kT*k[5mC]; antisense) [compound 549334]

Solution:
1. 9
2. 15
3. 15
4. 48
5. 44
6. 29

---

Tested on: C4-2B MR cells
Assay: Proliferation of MDV3100-resistant C4-2B cells (CellTiter 96)
Assay type: cell-based, human
Settings: 1.00 μM, 6 days
Oligonucleotides are written 5' to 3', each unit as a sugar letter and its base; * is a phosphorothioate linkage, no mark a phosphodiester; rarer units and linkages stand in square brackets, end groups in braces. Plain capitals give the bases only. e = 2'-O-(2-methoxyethyl) (MOE); l = locked nucleic acid (LNA); k = constrained ethyl (cEt); [5mC] = 5-methylcytosine; d = 2'-deoxy (DNA)
parameter: Percent inhibition of C4-2B MR cell proliferation (%)
Numbers only, in %.

{"substance": "549458 (kG*kT*kT*dG*dA*dT*dT*dT*dA*dA*dT*dG*dG*kT*kT*kG) [compound 549458]", "study-target": "C4-2B MR cells", "unit-annotation": "%", "readout-number": 41}
{"substance": "347526 (TCTTATGTTTCCGAACCGTT; sugars from the 5' end e5 d10 e5, backbone and methylation of C not given here) [compound 347526]", "study-target": "C4-2B MR cells", "unit-annotation": "%", "readout-number": 7}
{"substance": "549372 (kA*kA*kG*dT*dT*dG*dT*dA*dG*dT*dA*dG*dT*k[5mC]*kG*k[5mC]) [compound 549372]", "study-target": "C4-2B MR cells", "unit-annotation": "%", "readout-number": 25}
{"substance": "554221 (ACCAAGTTTCTTCAGC; sugars from the 5' end l3 d10 l3, all phosphorothioate, methylation of C not given here) [compound 554221]", "study-target": "C4-2B MR cells", "unit-annotation": "%", "readout-number": 0}

Shifting focus to the substance that follows.
Exercise: Name the recorded Percent inhibition of C4-2B MR cell proliferation for 549434 (k[5mC]*kT*kA*dA*dA*d[5mC]*dT*dT*d[5mC]*d[5mC]*d[5mC]*dG*dT*kG*kG*k[5mC]) [compound 549434] .
Solution: 21

Each recorded value in this set is attributed to patent USRE48461E1.
